# credit: patent US12234222B2

Molecular target: Human RET protein (RET kinase) (Homo sapiens (Human))
Sequence (P07949 29-1114): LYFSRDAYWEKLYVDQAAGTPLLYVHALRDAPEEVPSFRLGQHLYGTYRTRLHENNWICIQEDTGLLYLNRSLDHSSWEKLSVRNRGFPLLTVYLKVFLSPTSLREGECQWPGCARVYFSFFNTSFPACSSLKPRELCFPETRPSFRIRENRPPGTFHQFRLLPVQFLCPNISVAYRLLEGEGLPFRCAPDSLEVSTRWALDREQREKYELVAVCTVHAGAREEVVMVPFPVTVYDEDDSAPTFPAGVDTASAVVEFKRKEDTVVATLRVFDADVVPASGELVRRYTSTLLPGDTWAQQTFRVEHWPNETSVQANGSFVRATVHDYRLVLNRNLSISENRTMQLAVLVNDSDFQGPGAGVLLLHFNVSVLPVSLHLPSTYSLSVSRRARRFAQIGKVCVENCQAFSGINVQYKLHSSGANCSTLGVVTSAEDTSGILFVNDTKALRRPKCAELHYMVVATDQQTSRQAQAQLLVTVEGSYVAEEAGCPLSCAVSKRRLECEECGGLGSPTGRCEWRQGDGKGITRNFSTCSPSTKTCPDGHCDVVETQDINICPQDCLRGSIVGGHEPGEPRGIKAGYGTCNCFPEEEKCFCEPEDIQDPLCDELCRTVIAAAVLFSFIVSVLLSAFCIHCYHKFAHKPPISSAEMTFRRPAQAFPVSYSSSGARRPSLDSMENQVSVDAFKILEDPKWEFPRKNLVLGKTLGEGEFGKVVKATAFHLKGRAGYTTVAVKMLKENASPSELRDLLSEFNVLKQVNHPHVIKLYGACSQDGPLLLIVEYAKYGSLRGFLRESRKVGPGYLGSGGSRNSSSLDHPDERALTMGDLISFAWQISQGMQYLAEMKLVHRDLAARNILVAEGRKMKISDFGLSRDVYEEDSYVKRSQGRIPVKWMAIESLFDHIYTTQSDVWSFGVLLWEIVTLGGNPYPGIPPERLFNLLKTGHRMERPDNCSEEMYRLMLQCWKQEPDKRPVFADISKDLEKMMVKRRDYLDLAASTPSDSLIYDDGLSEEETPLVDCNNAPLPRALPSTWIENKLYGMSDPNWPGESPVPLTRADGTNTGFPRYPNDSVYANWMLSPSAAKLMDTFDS
Test: RET kinase activity, HTRF KinEASE-TK TR-FRET assay
Assay type: biochemical
Details: inhibition of RET kinase; 9 concentrations 3200 nM~0.008 nM, 2% DMSO
Protocol: Test Example 1. Determination of the Activity of the Compound of the Present Disclosure on RET Kinase In this method, HTRF®KinEASE-TK Tyrosine Kinase Kit (Cat. No. 62TK0PEB) of Cisbio was used to determine the degree of phosphorylation of biotinylated polypeptide substrates by time-resolved fluorescence energy transfer (TR-FRET). Human RET protein (RET kinase) was purchased from Carna bioscience (Japan, Cat. No. 08-159-5 μg). […]
Exercise: for every item that follows, state its recorded IC50.
One number for each entry, in nM.

[
  {
    "mol-smiles": "Cc1cc(Nc2cc(CO)nc(N3CC4CCC(C3)N4C(=O)c3ccc(-n4cc(F)cn4)nc3)n2)n[nH]1",
    "uom": "nM",
    "IC50": 3
  },
  {
    "mol-smiles": "Cc1cc(Nc2cc(C)[nH]n2)nc(N2CC3CCC(C2)N3C(=O)c2ccc(-n3cc(F)cn3)nc2)n1",
    "uom": "nM",
    "IC50": 1.4
  },
  {
    "mol-smiles": "Cc1cc(Nc2cc(C(=O)O)nc(N3CC4CCC(C3)N4C(=O)c3ccc(-n4cc(F)cn4)nc3)n2)n[nH]1",
    "uom": "nM",
    "IC50": 25.6
  },
  {
    "mol-smiles": "Cc1cc(Nc2cc(C)[nH]n2)nc(N2CCN(C(=O)c3ccc(-n4cc(F)cn4)nc3)CC2)n1",
    "uom": "nM",
    "IC50": 12.5
  }
]

Please go through the list and note IC50 for each molecule.
1. COC(=O)c1cc(Nc2cc(C)[nH]n2)nc(N2CC3CCC(C2)N3C(=O)c2ccc(-n3cc(F)cn3)nc2)n1
2. Cc1cc(Nc2nc(N3CC4CCC(C3)N4C(=O)c3ccc(-n4cc(F)cn4)nc3)nc3ccccc23)n[nH]1
3. Cc1cc(Nc2cc(C)[nH]n2)nc(N2CC3CCC(C2)N3C(=O)c2ccc(-c3cnn(C)c3)nn2)n1

1: 24.7; 2: 6.2; 3: 2

###

biological target: KDR kinase (Homo sapiens (Human)); experiment: KDR control kinase activity, HTRF KinEASE-TK TR-FRET assay; type: biochemical; conditions: inhibition of KDR kinase; 16000 nM~0.04 nM, 2% DMSO
Sequence (P35968 20-1356): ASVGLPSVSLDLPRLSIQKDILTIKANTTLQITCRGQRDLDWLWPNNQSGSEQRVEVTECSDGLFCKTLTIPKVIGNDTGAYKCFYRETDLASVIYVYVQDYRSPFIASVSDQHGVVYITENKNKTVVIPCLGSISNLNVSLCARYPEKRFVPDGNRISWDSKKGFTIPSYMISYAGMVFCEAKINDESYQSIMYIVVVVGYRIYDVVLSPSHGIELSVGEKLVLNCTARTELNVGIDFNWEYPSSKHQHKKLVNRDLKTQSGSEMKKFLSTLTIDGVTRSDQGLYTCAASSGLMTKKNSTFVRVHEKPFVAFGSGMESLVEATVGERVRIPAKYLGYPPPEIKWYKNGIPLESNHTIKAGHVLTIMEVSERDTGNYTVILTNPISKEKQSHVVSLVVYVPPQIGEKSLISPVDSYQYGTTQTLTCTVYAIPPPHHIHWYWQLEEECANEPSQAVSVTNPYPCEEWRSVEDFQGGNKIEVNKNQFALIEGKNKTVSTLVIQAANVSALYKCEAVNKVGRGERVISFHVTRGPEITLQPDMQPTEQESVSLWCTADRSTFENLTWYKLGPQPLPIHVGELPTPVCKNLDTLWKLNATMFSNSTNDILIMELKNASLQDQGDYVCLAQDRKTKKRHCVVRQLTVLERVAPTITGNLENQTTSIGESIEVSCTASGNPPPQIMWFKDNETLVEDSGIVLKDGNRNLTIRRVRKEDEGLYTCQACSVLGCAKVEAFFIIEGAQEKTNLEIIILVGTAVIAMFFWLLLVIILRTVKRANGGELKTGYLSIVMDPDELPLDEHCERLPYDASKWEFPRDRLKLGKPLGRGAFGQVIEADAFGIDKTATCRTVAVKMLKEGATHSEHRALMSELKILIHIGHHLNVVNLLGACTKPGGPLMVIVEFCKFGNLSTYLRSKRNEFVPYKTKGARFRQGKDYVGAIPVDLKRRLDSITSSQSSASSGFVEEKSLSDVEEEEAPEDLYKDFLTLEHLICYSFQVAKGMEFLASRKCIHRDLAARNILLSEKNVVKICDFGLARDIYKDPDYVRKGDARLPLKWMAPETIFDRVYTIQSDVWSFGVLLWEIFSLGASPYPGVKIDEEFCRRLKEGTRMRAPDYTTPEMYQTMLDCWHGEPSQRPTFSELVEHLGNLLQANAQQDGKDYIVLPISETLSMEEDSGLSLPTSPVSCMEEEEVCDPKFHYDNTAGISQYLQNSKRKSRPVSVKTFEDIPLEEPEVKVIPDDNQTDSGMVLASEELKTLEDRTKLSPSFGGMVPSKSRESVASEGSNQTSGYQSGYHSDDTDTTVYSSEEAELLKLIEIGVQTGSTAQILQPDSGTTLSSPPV
Exam item: assign fulfilled to entries whose IC50 is below 100 nM and not fulfilled to entries at or above 100 nM. Note that a value of exactly 100 nM receives not fulfilled.

Please review the entries below; each comes with its answer.
[
  {
    "compound": "Cc1cc(Nc2cc(C)[nH]n2)nc(N2C3CCC2CN(C(=O)c2ccc(-n4cc(C#N)cn4)nc2)C3)n1 [Compound I-9]",
    "group-label": "not fulfilled"
  },
  {
    "compound": "Cc1cc(Nc2cc(C)[nH]n2)nc(N2CC3CCC(C2)N3C(=O)c2ccc(-n3cc(F)cn3)nn2)n1 [Compound I-13]",
    "group-label": "fulfilled"
  },
  {
    "compound": "Cc1cc(Nc2cc(C)[nH]n2)nc(N2CCC(C(=O)N[C@@H](C)c3ccc(-n4cc(F)cn4)nc3)CC2)c1 [Compound 164, reference compound]",
    "group-label": "not fulfilled"
  },
  {
    "compound": "Cc1cc(Nc2cc(C)[nH]n2)nc(N2CC3CCC(C2)N3C(=O)c2ccc(-c3ccncc3)nc2)n1 [Compound I-28]",
    "group-label": "not fulfilled"
  },
  {
    "compound": "Cc1cc(Nc2nc(N3CC4CCC(C3)N4C(=O)c3ccc(-n4cc(F)cn4)nc3)nc3ccccc23)n[nH]1 [Compound I-5]",
    "group-label": "not fulfilled"
  }
]

Is IC50 strictly under 100 nM for the entry Cc1cc(Nc2cc(C)[nH]n2)nc(N2CC3CCC(C2)N3C(=O)c2ccc(-n3cc(F)cn3)nc2)n1 [Compound I-4] ? fulfilled

Please determine if Cc1cc(Nc2cc(C)[nH]n2)nc(N2C3CCC2CN(C(=O)c2ccc(-n4cc(F)cn4)nn2)C3)c1 [Compound I-30] is below 100 nM in terms of IC50. fulfilled

###

molecular target: Human RET protein (RET kinase) (Homo sapiens (Human)); assay: RET kinase activity, HTRF KinEASE-TK TR-FRET assay; format: biochemical; details: inhibition of RET kinase; 9 concentrations 3200 nM~0.008 nM, 2% DMSO
We label by threshold. Values of IC50 strictly beneath 9 nM are Condition met. Values of 9 nM and up are Condition not met.

[
  {
    "molecule": "Cc1cc(Nc2cc(C)[nH]n2)nc(N2CC3CCC(C2)N3C(=O)c2ccc(-c3ccncc3)nc2)n1 [Compound I-28]",
    "system-under-test": "Human RET protein (RET kinase) (Homo sapiens (Human))",
    "group-label": "Condition met"
  },
  {
    "molecule": "Cc1cc(Nc2cc(C)[nH]n2)nc(N2C3CCC2CN(C(=O)c2ccc(-n4cc(C#N)cn4)nc2)C3)n1 [Compound I-9]",
    "system-under-test": "Human RET protein (RET kinase) (Homo sapiens (Human))",
    "group-label": "Condition met"
  },
  {
    "molecule": "Cc1cc(Nc2cc(C)[nH]n2)nc(N2CC3CCC(C2)N3C(=O)c2ccc(N3CC4C(C3)C4(C)C)nc2)n1 (stereo not drawn) [Compound I-10]",
    "system-under-test": "Human RET protein (RET kinase) (Homo sapiens (Human))",
    "group-label": "Condition met"
  }
]

Just wondering, is IC50 of Cc1cc(Nc2cc(C)[nH]n2)nc(N2CCN(C(=O)c3ccc(-n4cc(F)cn4)nc3)C3(CC3)C2)n1 [Compound I-12] below 9 nM? Condition met

Lab note: confirm whether the reported IC50 for this molecule is below 9 nM, equality not counting. molecule: Cc1cc(Nc2cc(C)[nH]n2)nc(N2CC3CCC(C2)N3C(=O)c2ccc(-n3cc(F)cn3)nn2)n1 [Compound I-13] Condition met

Check if IC50 falls below 9 nM for Cc1cc(Nc2cc(C)[nH]n2)nc(N2C3CCC2CN(C(=O)c2ccc(-n4cc(F)cn4)nn2)C3)c1 [Compound I-30] . Condition met

Answer whether the molecule Cc1cc(Nc2cc(C)[nH]n2)nc(N2CC3COCC(C2)N3C(=O)c2ccc(-n3cc(F)cn3)nc2)n1 [Compound I-7] has IC50 strictly less than 9 nM Condition not met

IC50 under 9 nM? Item: Cc1cc(Nc2cc(C)[nH]n2)nc(N2CC3CCC(C2)N3C(=O)c2ccc(-c3ccc(F)cc3)nc2)n1 [Compound I-25] Condition met

For this molecule, is IC50 lower than 9 nM? Cc1cc(Nc2cc(C)[nH]n2)nc(N2CCC(C(=O)N[C@@H](C)c3ccc(-n4cc(F)cn4)nc3)CC2)c1 [Compound 164, reference compound] Condition not met

###

biological target: UniProt:P35968; assay: KDR control kinase activity, HTRF KinEASE-TK TR-FRET assay; type: biochemical; settings: inhibition of KDR kinase; 16000 nM~0.04 nM, 2% DMSO
property-name: IC50

Below, 3 molecules whose answers are already recorded.
[
  {
    "molecule": "Cc1cc(Nc2cc(C)[nH]n2)nc(N2CC3CCC(C2)N3C(=O)c2ccc(N3CC4C(C3)C4(C)C)nc2)n1 (centres unmarked)",
    "IC50": "1550 nM"
  },
  {
    "molecule": "Cc1cc(Nc2cc(C)[nH]n2)nc(N2CCN(C(=O)c3ccc(-n4cc(F)cn4)nc3)[C@@H](C)C2)n1",
    "IC50": "851 nM"
  },
  {
    "molecule": "Cc1cc(Nc2cc(C)[nH]n2)nc(N2CC3CCC(C2)N3C(=O)c2ccc(-c3ccc(F)cc3)nc2)n1",
    "IC50": "260 nM"
  }
]

Dear colleague, could you please provide IC50 for the molecules listed below?
1. Cc1cc(Nc2cc(C)[nH]n2)nc(N2CCN(C(=O)c3ccc(-n4cc(F)cn4)nc3)CC2)n1
2. Cc1cc(Nc2cc(C)[nH]n2)nc(N2CC3CCC(C2)N3C(=O)c2ccc(-c3cnn(C)c3)nn2)n1

1. 1130 nM
2. 221 nM

###

biological target: Human RET protein (RET kinase) (Homo sapiens (Human)); test: RET kinase activity, HTRF KinEASE-TK TR-FRET assay; assay type: biochemical; settings: inhibition of RET kinase; 9 concentrations 3200 nM~0.008 nM, 2% DMSO
Kindly state IC50 for each of the entries shown.
Answers are plain numbers, in nM.

In the examples that follow, each entry is paired with its recorded IC50.
[
  {
    "mol-smiles": "Cc1cc(Nc2cc(C)[nH]n2)nc(N2CC3CCC(C2)N3C(=O)c2ccc(-c3cnn(C)c3)nc2)n1",
    "system-under-test": "Human RET protein (RET kinase) (Homo sapiens (Human))",
    "IC50 [nM]": 8.1
  },
  {
    "mol-smiles": "Cc1cc(Nc2cc(C(F)(F)F)nc(N3CC4CCC(C3)N4C(=O)c3ccc(-n4cc(F)cn4)nn3)n2)n[nH]1",
    "system-under-test": "Human RET protein (RET kinase) (Homo sapiens (Human))",
    "IC50 [nM]": 8
  }
]

Reported IC50 ( Cc1cc(Nc2cc(C)[nH]n2)nc(N2CCN(C(=O)c3ccc(-n4cc(F)cn4)nc3)[C@@H](C)C2)n1 ) = 11.8
